- SUBJECT_OF_TEST: Protein kinase C alpha type (Homo sapiens, UniProt P17252)
Sorting guide: entries reporting ED50 beneath 600 nM go in the met pile, the rest go in the not met pile.

# input Please state whether ED50 is below 600 nM for CCCCCC(=O)OCC1(CO)C/C(=C/CC(C(C)C)C(C)C)C(=O)O1 (centres undefined)
# output not met

# input State whether 600 nM exceeds ED50 recorded for CCCCCCOC(=O)/C=C/[C@]1(CO)C/C(=C/CC(C(C)C)C(C)C)C(=O)O1 .
# output not met

# input I'd appreciate it if you could check whether CCCCCCCCC/C=C1/CC(CO)(COC(=O)CC(C(C)C)C(C)C)OC1=O (centres undefined) has ED50 smaller than 600 nM.
# output met

# input Lab note: confirm whether the reported ED50 for this compound is below 600 nM, equality not counting. compound: CC(C)C(C/C=C1/CC(CO)(COC(=O)CC(C(C)C)C(C)C)OC1=O)C(C)C (centres undefined)
# output met

# input Determine if CC(C)C(C/C=C1\CC(CO)(COC(=O)CC(C(C)C)C(C)C)OC1=O)C(C)C (centres undefined) shows ED50 strictly lower than 600 nM.
# output not met

# input Determine whether this compound shows ED50 lower than 600 nM (ties excluded): CCCC(=O)OCC1(CO)C/C(=C/CC(C(C)C)C(C)C)C(=O)O1 (centres undefined)
# output not met

# input Bench note: check whether CCCCCCCCCC(=O)OCC1(CO)C/C(=C/CC(C(C)C)C(C)C)C(=O)O1 (centres undefined) shows ED50 below 600 nM
# output not met

# input Determine whether this compound shows ED50 lower than 600 nM (ties excluded): CCCCCCCC/C=C\CCCCCCC/C=C1/C[C@](/C=C/C(=O)OC)(CO)OC1=O
# output not met

# input Is ED50 strictly under 600 nM for the entry CCCCC/C=C1/CC(CO)(COC(=O)CC(C(C)C)C(C)C)OC1=O (centres undefined) ?
# output met
